Source of measurements: patent US20030207843A1

- Tested on: HIV-1LAI E89K
- EXPERIMENT: p24 reduction assay in MT-2 cells, E89K
- Type: cell-based
- MEASUREMENT CONTEXT: Table 7; E89K
READOUT TYPE: EC50 (µM)
Write down the numeric answer in µM and omit the unit.

1) CCCCCCCCCCCCCCCCCCOC[C@H](COP(=O)(O)C(=O)O)OC: 7.21

Ask | Would you mind telling me what EC50 value was observed for CCCCCCCCCCCCCCCCCCOC[C@H](COP(=O)(O)C(=O)O)OCC ?
Reply | 5.21

---

The following compounds are shown together with reported Fold-resistance values.
- Tested on: HIV-1LAI 4XAZT/Q161L/H208Y
- EXPERIMENT: p24 reduction assay in MT-2 cells, 4XAZT/Q161L/H208Y
- Format: cell-based
- MEASUREMENT CONTEXT: Table 7; 4XAZTQ161L/H208Y relative to wild type virus
- Experimental: Cells. […] Antiviral Susceptibility Assays. The antiviral activity of each compound was determined by inoculating MT-2 cells with HIV-1LAI at a multiplicity of infection (MOI) of 0.01 TCID50/cell, followed by incubation in the presence of three-fold serial drug dilutions (3 wells per dilution) (see Mellors, et. al., Antimicrob. Agents Chemother. 39:1087-1092). […] The fold-resistance of a test virus is calculated by dividing the IC50 of the test virus by the IC50 of the HIV-1LAI control virus. […]

1) O=C(O)P(=O)(O)O [PFA, phosphonoformate, reference compound]: 17.50 (2.4)

Ask | # get_value(readout='Fold-resistance', item= CCCCCCCCCCCCCCCCCCOC[C@H](COP(=O)(O)C(=O)O)OCC )
Reply | 0.54 (2.6)

Ask | Can you check CCCCCCCCCCCCCCCCCCOC[C@@H](O)COP(=O)(O)C(=O)O next?
Reply | 0.85 (2.4)

Ask | Follow-up entry: CCCCCCCCCCCCCCCCCCOC[C@H](COP(=O)(O)C(=O)O)OC
Reply | 0.14 (2.7)
